Values were extracted from the DeepSol protein solubility set.

- Assay details: soluble on expression in E. coli; label from the status in PepcDB or PDB records
Assay metric: soluble on expression in E. coli

# Sequence data, Assay metric, Data value
records = [
    ("EAGAMDERTFGKSIEVYTRQICEELLTTAAGNTDAHYKTYRCPLCGNDSVRVFPKIVKCVTDGCGFKVFRELCGTLLSKEYIHALMTDGCTPLLCRLTGKSGKTFNARLKLDKDGGTSFVFDSKPRKPQT", "soluble on expression in E. coli", "not soluble"),
    ("MASIKEELISAAESESQVMQIVQAALEGIDMDALTSMTPGLPQTVRQTAINSLLSSKKLAIQQAPGGVLRLKVNTSEQIAGTEEEQVIYSLIEESKTRGIWIKELREGSGLNQLQLRKTLKSLETKKLIKTIKAVGTTRKCYILFSIEPDMSLTGGTFYSDQQLDSELINTLISVCGSYAASRRKHAIDENPNNIQMQREASYIRPQEIAQFITEKRVLNVPLSLEDLERILEVAVLDGTIERRADGKIRACPPRSSISPLVSVPCAICPVVEDCRPGYVISPQSCDYMKNWLADL", "soluble on expression in E. coli", "not soluble"),
]

* * *

- Assay details: soluble on expression in E. coli; label from the status in PepcDB or PDB records
Assay metric: soluble on expression in E. coli

Illustrative cases are given below, each with its answer.
# Sequence data, soluble on expression in E. coli
data = [
    ("MGSDKIHHHHHHMLNMDLSQRVVINTADLEWQNSPAAGVLRKRLAREEAERGHATSIVKYQAGAKFNSHPHPLGEEILVLDGVFSDETGDYPAGTYLRNPEGFVHAPFSVQGCTLLVKLHQFQTTDSQQVAINTNETQWLPGHGQLQVMPLHQHGTESTALVKWPAGTHFQPHRHFGGEEIYVISGVFIDELGRYPAGTWIRSPHLSQHNPYVEQDTVILVKVGHL", "not soluble"),
    ("GFIDTHVHSGHRALHKLLADGGRPDLFGQPYMDVTIARDGTRIKGYPNYLSREEAAVDPGIALHAAFTVAELLRNGVTTFVELGGHVMVQEALWRECERLGVRGYLGAGYDSGRWAADDQGRLRRVPYPDGGDHLFEEAVAFIKRVQAAGNDLVNGILVPREVENCSVDILRRTVQAAQELGVPMATHAGYNVIEFYETVREHRMTPIELLHSVGMLGPRLNIGHANLISDSPRLNYSGGRDLALMGEHRVSISHCPINIVRRARVLDSWKKYREAGVNLTIGSDTYPRDMVMNMRTASYHGKVMSHDLTAASAAEVFEAATLGGARSLGRTDI", "not soluble"),
    ("MTTAKPNTVEQFEHVIDICREVFQKKLHDYGASWRVMRPSSLTDQLYIKANRIRNIQMKGLSKVDEGVESEFIGVVNYGVIALIQLELGVADTPKMETEEALRLYDLKIREAMSLMLDKNHDYGEAWRQMRVSSFADLILTKVFRTKEIEDLGGDTYISEGVDANYMDMINYAIFALIQLNG", "not soluble"),
    ("MAISKRHIGPYIIRETLGEGSFGKVKLATHYKTQQKVALKFISRQLLKKSDMHMRVEREISYLKLLRHPHIIKLYDVITTPTDIVMVIEYAGGELFDYIVEKKRMTEDEGRRFFQQIICAIEYCHRHKIVHRDLKPENLLLDDNLNVKIADFGLSNIMTDGNFLKTSCGSPNYAAPEVINGKLYAGPEVDVWSCGIVLYVMLVGRLPFDDEFIPNLFKKVNSCVYVMPDFLSPGAQSLIRRMIVADPMQRITIQEIRRDPWFNVNLPDYLRPMEEVQGSYADSRIVSKLGEAMGFSEDYIVEALRSDENNEVKEAYNLLHENQVIQEKLEHHHHHH", "soluble"),
    ("AIATSDITSGFAAVATALEHEGQLRERLRLQRDELDVAVRSLETQLSRLHYEVDWSDAVAGARQQLRTIGSGFLELQSLVPEGMFYKYNDLWRQCSIHIVQSCLLIRFFETVHAPGPQFSDNLDQSQANDSVETCTAALVTKDEVLEMLDGEKAPTQPALRLDLEEYLLGLCGGIQELARLAANRVVLGDYATPRKLAFFCNQVYAGFRLLNFRNDSLRRSYDALKYAIQRLDSILYDLRIRKLS", "soluble"),
]

Prompt: Query: soluble on expression in E. coli; subject: GMTTQTATDFMEIVKGRRSIRNYDTNVKISKEEMTQILEEATLAPSSVNMQPWRFLVIDSEEGKATLAPLAKFNQVQVETSSAVIAVFGDMKAIDQLENIYDTAVEKGLMPQEVRDRQVPAIQGMYENVPASALKDSILIDSGLVSMQLMLVARAHGYDTNPIGGYEKDQIAEAFGMEKDRYVPVMLLSIGKAVDAGYPSVRLPINDIADWK
Completion: soluble
